// reported CC50 for each item listed
test-protocol: in vitro
details: human

Completed entries (count: 5):
smiles-notation: COc1cccc2[nH]c(C(=O)N3C[C@@H]4CCC[C@@H]4[C@H]3C(=O)N[C@@H](C[C@@H]3CCNC3=O)C(=O)C(=O)N(C)C)cc12
reported-property: CC50
result: > 50 µM

smiles-notation: O=C1NCC[C@H]1C[C@H](NC(=O)[C@@H]1[C@@H]2[C@H](CN1C(=O)c1cc3c(Cl)cc(Cl)cc3[nH]1)[C@@H]1C=C[C@H]2C1)C(=O)CO
reported-property: CC50
result: > 50 µM

smiles-notation: CC(F)(F)c1cccc2[nH]c(C(=O)N3C[C@@H]4CCC[C@@H]4[C@H]3C(=O)N[C@@H](C[C@@H]3CCNC3=O)C(=O)CO)cc12
reported-property: CC50
result: > 50 µM

smiles-notation: O=C(NCc1ccccc1)C(=O)[C@H](C[C@@H]1CCNC1=O)NC(=O)[C@@H]1C[C@@]2(CN1C(=O)c1cc3ccccc3[nH]1)CC2(F)F
reported-property: CC50
result: > 100 µM

smiles-notation: O=C1NCC[C@H]1C[C@H](NC(=O)[C@@H]1[C@H]2CCC[C@H]2CN1C(=O)c1cc2c(Cl)ccc(OCc3ccccc3)c2[nH]1)C(=O)CO
reported-property: CC50
result: > 10 µM

Let's switch to this compound now.
Prompt: Entry O=C1NCC[C@H]1C[C@H](NC(=O)[C@@H]1[C@H]2CCC[C@H]2CN1C(=O)c1cc2ccsc2[nH]1)C(=O)CO has what CC50?
Completion: > 50 µM
